- System: HS 578T breast
- protocol-notes: NCI tumour cell line growth inhibition, 48 h
Provide the recorded TGI for the entries that follow.

Return reported TGI values for all items listed beneath this line.
1. CC(NC1=NCCO1)c1ccsc1 (stereo not given)
2. CCN(CC)CCOc1ccc2c(-c3ccccc3)c(-c3ccc(OC)cc3)c(=O)oc2c1
3. N=C1C(c2nc3ccccc3c(=O)[nH]2)=C(O)CN1c1cccc(Cl)c1

["33.9 µM", "15.5 µM", "12.3 µM"]

Return reported TGI values for all items listed beneath this line.
1. COc1cc(C(=O)/C=C/c2cccnc2Nc2ccc(Cl)cc2)cc(OC)c1OC
2. C=CCc1cc(O)ccc1O
3. O=S1(=O)C[C@H](NCc2ccccc2)[C@H](NCc2ccccc2)C1
4. CC(C)(C)OC(=O)NC(Cc1ccc(OC(C)(C)C)cc1)C(=O)N[C@H]1CC[C@H](C(=O)O)C1 (stereo not given in full)
5. CC1(C)COC(c2cccc(C(O)c3ccc(Cl)cc3)c2)=N1 (stereo not given)

1: 59.2 µM; 2: > 100 µM; 3: > 100 µM; 4: > 100 µM; 5: > 100 µM

Return reported TGI values for all items listed beneath this line.
1. COc1ccc(/C(=N/Nc2nc3ccccc3n2Cc2ccccc2)C(=O)O)cc1
2. CC(C)(Oc1cccc(N2CCC[C@@H](C(=O)N(Cc3ccc(-c4cn[nH]c4)cc3)C3CC3)C2)c1)C(=O)N1CCNCC1

1. > 100 µM
2. 29.4 µM

* * *

- Tested on: CAKI-1 renal
- protocol-notes: NCI tumour cell line growth inhibition, 48 h
Provide the recorded TGI for the entries that follow.

Examples with answers:
Cn1c(=O)oc2cc(C(O)CN3CCN(Cc4ccc5c(c4)OCO5)CC3)ccc21 (stereo not given) = > 100 µM
O=S1(=O)C[C@H](NCc2ccccc2)[C@H](NCc2ccccc2)C1 = > 100 µM
CC1(C)COC(c2cccc(C(O)c3ccc(Cl)cc3)c2)=N1 (stereo not given) = 87.1 µM
[N-]=[N+]=NC1(Cc2ccccc2)C(=O)Nc2ccccc2C1=O (stereo not given) = > 100 µM
CN(C)CC1CCCC/C1=N\OC(=O)c1ccccc1 (stereo not given) = > 100 µM
Cc1cc(NS(=O)(=O)c2ccc(NC(=O)c3cccc4c(Nc5ccc(S(=O)(=O)Nc6cc(C)on6)cc5)c5ccc(Cl)cc5nc34)cc2)no1 = > 100 µM

Return reported TGI values for all items listed beneath this line.
1. Cc1ncnc2c1ccn2[C@@H]1C[C@H](Oc2cc(C(F)F)c(F)c3c2CNCC3)[C@@H](O)[C@H]1O
2. CC12CCC(=O)N1[C@@H](c1ccccc1)[C@@H](c1ccccc1)O2 (stereo not given in full)
3. O=[N+]([O-])c1ccccc1S(=O)(=O)c1cccc2c1NCCC2
4. c1ccc(C2=Nc3ccccc3N3CNN=C23)cc1
5. CC(=O)c1ccc(NC(=O)C(=O)CC(=O)c2sc(-n3nc(-c4ccccc4)cc3-c3ccccc3)nc2C)cc1

> 100 µM
> 100 µM
> 100 µM
> 100 µM
> 100 µM

Return reported TGI values for all items listed beneath this line.
1. CC(C)N(CCNc1nc(C(Cl)(Cl)Cl)nc2cc(Cl)ccc12)C(C)C
2. O=C(NNC1=NS(=O)(=O)c2ccccc2N1c1ccccc1)c1cnccn1
3. CCOc1cc(CC[N+](C)(C)C)c2c(ccc3ccc(OC)c(OC)c32)c1OC
4. CN1C(=O)C(O)CC1c1ccccc1F (stereo not given)
5. O=C1NC(=Nc2ccccc2Cl)N/C1=C\c1c(Cl)cccc1Cl
6. CN1CCC(=C(c2ccc(Cl)cc2)c2ccccn2)CC1

1: 3.17 µM; 2: > 100 µM; 3: > 100 µM; 4: > 100 µM; 5: > 100 µM; 6: > 100 µM
